Procedure Summary: Stability of pure lycopene isomers in n-hexane during storage at room temperature
Assay type: physicochemical
Measurement Context: n-hexane, room temperature, absence of light, 0 days

{"columns": ["Structure Smiles", "concentration (% of total isomers) x-Z"],
 "data": [
  ["CC(C)=CCC/C(C)=C/C=C/C(C)=C/C=C/C(C)=C/C=C/C=C(C)/C=C/C=C(C)/C=C/C=C(\\C)CCC=C(C)C", "0.1 % of total isomers"],
  ["CC(C)=CCC/C(C)=C/C=C/C(C)=C/C=C/C(C)=C\\C=C\\C=C(C)\\C=C\\C=C(C)\\C=C\\C=C(/C)CCC=C(C)C", "1.0 % of total isomers"],
  ["CC(C)=CCC/C(C)=C/C=C/C(C)=C\\C=C\\C(C)=C\\C=C\\C=C(C)\\C=C\\C=C(C)\\C=C\\C=C(/C)CCC=C(C)C", "0 % of total isomers"],
  ["CC(C)=CCC\\C(C)=C/C=C/C(C)=C/C=C/C(C)=C/C=C/C=C(C)/C=C/C=C(C)/C=C/C=C(\\C)CCC=C(C)C", "3.4 % of total isomers"]
]}

Hello, the source for this data is patent US8216619B2, in case you need it.
